# drug-induced phospholipidosis per entry
# System: A549-ACE2
# Assay Remarks: drug-induced phospholipidosis relative to tamoxifen; higher = more phospholipidosis
# Test Settings: 0.833333 µM; 72 h
// note: answer is a bare numeric in %

>  <Compound>
C=C1C(=O)O[C@@H]2[C@H]3O[C@]3(C)CC/C=C(\C)CC[C@@H]12 [parthenolide-(alternate-stereo)]

>  <Experimental System>
A549-ACE2

>  <Measured Value>
-1.59

$$$$
>  <Compound>
CC(C)(C)Cn1c(N)nc2ccc(-c3[nH]c(C(C)(C)C)nc3-c3ccc(F)cc3)nc21

>  <Experimental System>
A549-ACE2

>  <Measured Value>
3.92

$$$$
>  <Compound>
C[C@@H]1C[C@H]2[C@@H]3CCC4=CC(=O)C=C[C@]4(C)[C@@]3(Cl)[C@@H](O)C[C@]2(C)[C@@]1(OC(=O)c1ccco1)C(=O)CCl [MOMETASONE FUROATE]

>  <Experimental System>
A549-ACE2

>  <Measured Value>
-3.08

$$$$

Continue with the next compound.
Query :: What does the record list as drug-induced phospholipidosis for c1ccc(-c2ccc(C(c3ccccc3)n3ccnc3)cc2)cc1 (centres undefined) ?
Result :: -1.31

----------
Each entry below lists one item and its recorded cell viability value.
# Tested on: HepG2
# Assay Remarks: cell viability relative to DMSO; higher = less toxic
# Test Settings: 72 h; 1 nM
Respond numerically; units are % and should not be typed.

These recorded examples may help you get a feel for the data.
>  <Compound>
CC1C(=O)OC2C(O)C34C5CC(C(C)(C)C)C36C(OC(=O)C6O)OC4(C(=O)O5)C12O (stereo not drawn) [ginkgolide-B]

>  <Experimental System>
HepG2

>  <Measured Value>
110

$$$$
>  <Compound>
N[C@@H](Cc1ccc(O)cc1)C(=O)O [plovamer-acetate]

>  <Experimental System>
HepG2

>  <Measured Value>
87.2

$$$$
>  <Compound>
CC(C)(C=O)Cc1cc(C(C)(C)C)c(O)c(C(C)(C)C)c1

>  <Experimental System>
HepG2

>  <Measured Value>
97.2

$$$$
>  <Compound>
N[C@@H](CSC(c1ccccc1)(c1ccccc1)c1ccccc1)C(=O)O

>  <Experimental System>
HepG2

>  <Measured Value>
83.6

$$$$
>  <Compound>
O=C(NCC(=O)N1CC[C@H](N[C@H]2CC[C@@](O)(c3ccc(-c4ncccn4)cn3)CC2)C1)c1cccc(C(F)(F)F)c1

>  <Experimental System>
HepG2

>  <Measured Value>
103

$$$$

Query :: Entry CC#CCn1c(N2CCC[C@@H](N)C2)nc2c1c(=O)n(Cc1nc(C)c3ccccc3n1)c(=O)n2C has what cell viability?
Result :: 95.3

Query :: Please do the same for CC(=O)N[C@H]1[C@H]([C@H](O)[C@H](O)CO)OC(C(=O)O)=C[C@@H]1NC(=N)N as well.
Result :: 93.4

Query :: Can you check CCCCC/C=C\C/C=C\C/C=C\CCCCC(=O)O next?
Result :: 107

----------
# Tested on: A549-ACE2
# Assay Remarks: drug-induced phospholipidosis relative to tamoxifen; higher = more phospholipidosis
# Test Settings: 3.33333 µM; 24 h
The entries below are paired with their reported drug-induced phospholipidosis.
Kindly answer with a numeric value in %, unit omitted.

Completed entries (count: 3):
>  <Compound>
FC(F)(F)c1ccc(CNc2ccc(Cc3c[nH]c4ncc(Cl)cc34)cn2)cn1

>  <drug-induced phospholipidosis, %>
1.3

$$$$
>  <Compound>
C[C@@H]1C[C@H]2[C@@H]3CCC4=CC(=O)C=C[C@]4(C)[C@@]3(Cl)[C@@H](O)C[C@]2(C)[C@@]1(OC(=O)c1ccco1)C(=O)CCl [MOMETASONE FUROATE]

>  <drug-induced phospholipidosis, %>
33.2

$$$$
>  <Compound>
O=C(c1ccc(/C=C/c2n[nH]c3ccccc23)cc1)N1CCNCC1

>  <drug-induced phospholipidosis, %>
3.6

$$$$

The record that follows has no drug-induced phospholipidosis shown yet.
Query :: What value of drug-induced phospholipidosis on A549-ACE2 does COc1ccccc1C1(O)CCN(CCCn2c3ccccc3c3ccccc32)CC1 have?
Result :: 87.6

----------
# System: Calu-3
# Assay Remarks: cell viability relative to DMSO; higher = less toxic
# Test Settings: 72 h; 100 nM
# cell viability annotations
Write the value in % as a bare number.

Known results for compounds:
>  <Compound>
CCN(CC)C(=O)N[C@H]1C[C@@H]2c3cccc4[nH]cc(c34)C[C@H]2N(C)C1 [terguride]

>  <Unit Abbreviation>
%

>  <cell viability>
95.2

$$$$
>  <Compound>
COc1ccc(CC(=O)NC(/N=C(\NC#N)Nc2cccc3ncccc23)C(C)(C)C)cc1OC (stereo unspecified)

>  <Unit Abbreviation>
%

>  <cell viability>
95.6

$$$$
>  <Compound>
CO[C@H]1/C=C/O[C@@]2(C)Oc3c(C)c(O)c4c(O)c(c(/C=N/N=C/N5CCCCC5)c(O)c4c3C2=O)NC(=O)/C(C)=C\C=C\[C@H](C)[C@H](O)[C@@H](C)[C@@H](O)[C@@H](C)[C@H](OC(C)=O)[C@@H]1C

>  <Unit Abbreviation>
%

>  <cell viability>
105

$$$$
>  <Compound>
CN1C[C@H](C(=O)N[C@]2(C)O[C@@]3(O)[C@@H]4CCCN4C(=O)[C@H](Cc4ccccc4)N3C2=O)C[C@@H]2c3cccc4[nH]cc(c34)C[C@H]21 [dihydroergotamine]

>  <Unit Abbreviation>
%

>  <cell viability>
96.3

$$$$
>  <Compound>
COc1ccc2cc3[n+](cc2c1OC)CCc1cc2c(cc1-3)OCO2 [berberine]

>  <Unit Abbreviation>
%

>  <cell viability>
105

$$$$

Query :: I have this compound here, CCOC(=O)[C@H](CCc1ccccc1)N[C@@H](C)C(=O)N(CC(=O)O)C1Cc2ccccc2C1 [delapril] , and I need its recorded cell viability.
Result :: 92.3

Query :: Entry CC(=O)N1CCC(NC(=O)c2ccc(F)cc2)CC1 [FK-962] please
Result :: 101

Query :: Let us now turn to Nc1cc(C(Cl)=C(Cl)Cl)c(S(N)(=O)=O)cc1S(N)(=O)=O [clorsulon]
Result :: 104

----------
# Tested on: Caco-2
# Assay Remarks: cell viability relative to DMSO; higher = less toxic
# Test Settings: 72 h; 100 nM
// cell viability lookup, one value per entry
Numeric answer plus unit only.

>  <Molecule>
O=C1C(Cl)=C(NCCN2CCOCC2)C(=O)c2ncccc21

>  <cell viability>
89.5%

$$$$
>  <Molecule>
NCCC(O)(P(=O)(O)O)P(=O)(O)O [pamidronate]

>  <cell viability>
106%

$$$$
>  <Molecule>
CCOC(=O)C1=C(C)NC(C)=C(C(=O)OC)[C@@H]1c1cccc([N+](=O)[O-])c1 (racemic)

>  <cell viability>
96.2%

$$$$
>  <Molecule>
Nc1ccccc1NC(=O)c1ccc(CNc2nccc(-c3cccnc3)n2)cc1

>  <cell viability>
102%

$$$$

Query :: cell viability lookup needed for Brc1c(NC2=NCCN2)ccc2nccnc12 , thanks.
Result :: 108%

----------
# Test system: HepG2
# Assay Remarks: cell viability relative to DMSO; higher = less toxic
# Test Settings: 72 h; 100 nM
Observation Type: cell viability
The reply should consist of the numeric value with the unit placed after it.

>  <Compound>
CC(C)(O)CS(=O)(=O)Nc1ccc2c(c1)CCN(C(=O)COc1cccnc1)C2

>  <Measured Value>
50.2%

$$$$
>  <Compound>
CC(O)(P(=O)(O)O)P(=O)(O)O

>  <Measured Value>
105%

$$$$
>  <Compound>
CC(=O)OC[C@H](N)C(=O)O

>  <Measured Value>
106%

$$$$

Query :: Which cell viability reading was recorded for the compound CC[C@@H]([C@H](C)O)n1ncn(-c2ccc(N3CCN(c4ccc(OC[C@@H]5CO[C@@](Cn6cncn6)(c6ccc(F)cc6F)C5)cc4)CC3)cc2)c1=O ?
Result :: 105%

Query :: // next record COc1ccc2c(OCc3nnc4ccc(-c5ccccc5)nn34)ccnc2c1
Result :: 101%

Query :: Lookup CNC(=O)c1cc2c(cn1)[nH]c1ccccc12
Result :: 107%

----------
# Tested on: Vero E6
# Assay Remarks: drug sensitivity score (DSS) for viability; higher = more toxic; extreme values may be limits of the assay
# Test Settings: 72 h
Observation Type: drug sensitivity score

Below: 6 compounds and their reported drug sensitivity score.
>  <Compound>
COc1cc(CCc2cc(NC(=O)c3ccc(N4CC(C)NC(C)C4)cc3)n[nH]2)cc(OC)c1 (stereo not drawn) [AZD4547]

>  <Measured Value>
0

$$$$
>  <Compound>
Oc1cc2c(cc1O)C(c1ccccc1)CNCC2 (stereo not drawn)

>  <Measured Value>
0

$$$$
>  <Compound>
CCOC(=O)[C@H](CCc1ccccc1)N[C@@H](C)C(=O)N(CC(=O)O)C1Cc2ccccc2C1 [delapril]

>  <Measured Value>
0

$$$$
>  <Compound>
c1ccc(-c2ccc(C(c3ccccc3)n3ccnc3)cc2)cc1 (stereo not drawn) [bifonazole]

>  <Measured Value>
0

$$$$
>  <Compound>
CCOC(=O)C1=C(C)NC(C)=C(C(=O)OC)[C@@H]1c1cccc([N+](=O)[O-])c1 (racemic) [nitrendipine]

>  <Measured Value>
0

$$$$
>  <Compound>
Cc1ccc(/C=N/NC(=O)c2ccccc2Oc2ccccc2)o1

>  <Measured Value>
0

$$$$

Query :: Fill in the blank: the reported drug sensitivity score of CC(C)C[C@@H]1NC(=O)[C@@H](C(C)C)NC(=O)[C@@H]2CCCN2C(=O)[C@@H](CC(=O)O)NC(=O)[C@@H](Cc2c[nH]c3ccccc23)NC1=O [BQ-123] is ____.
Result :: 0

Query :: Further, for CNC(=O)c1cc2c(cn1)[nH]c1ccccc12 [FG-7142] ?
Result :: 0
